System: native geph
Assay: µSPOT peptide microarray binding assay with native geph from mouse brain lysate
Settings: µSPOT peptide microarray, GlyRβ full positional scan, native geph from mouse brain lysate; intensity normalised to wild-type sequence DLRSNDFSIVGSLPR (=1)
METRIC NAME: Native geph Binding Intensity [norm.] (norm.)

P = DLRSNDFSFVGSLPR [GlyRβ_Full_Positional_Scan_167, GlyR β 414-428 variant I422F]
Q = DLRSWDFSIVGSLPR [GlyRβ_Full_Positional_Scan_088]
Task item: Would you let me know which has the greater Native geph Binding Intensity [norm.] value, P or Q ? Answer format: the label of the selected item.
Reply: Q
(Q: 0.47 norm., P: 0.27 norm.)

----------
Tested on: native geph
Experiment: µSPOT peptide microarray binding assay with native geph from mouse brain lysate
Conditions: µSPOT peptide microarray, GlyRβ full positional scan, native geph from mouse brain lysate; intensity normalised to wild-type sequence DLRSNDFSIVGSLPR (=1)
METRIC NAME: Native geph Binding Intensity [norm.] (norm.)

* DLLSNDFSIVGSLPR [GlyRβ_Full_Positional_Scan_044] | 1.48
* DLRSNDFPIVGSLPR [GlyRβ_Full_Positional_Scan_145, GlyR β 414-428 variant S421P] | 0.25
* DPRSNDFSIVGSLPR [GlyRβ_Full_Positional_Scan_025] | 1.02
* DLRSNDDSIVGSLPR [GlyRβ_Full_Positional_Scan_130, GlyR β 414-428 variant F420D] | 0.26

P = DLRSNDFVIVGSLPR [GlyRβ_Full_Positional_Scan_146, GlyR β 414-428 variant S421V]
Q = DLRSNDFSIMGSLPR [GlyRβ_Full_Positional_Scan_198, GlyR β 414-428 variant V423M]
Task item: Could you determine which record has the numerically smaller Native geph Binding Intensity [norm.]? Candidates: P and Q Answer format: the label of the selected item.
Reply: P
(P: 0.23 norm., Q: 0.38 norm.)

----------
Tested on: gephE
Experiment: µSPOT peptide microarray binding assay with recombinant gephE
Details: overlapping GlyR β peptide library on µSPOT array; 50 nM gephE; anti-gephyrin 3B11/HRP chemiluminescence; normalized to most prominent spot; n = 2 array-internal duplicate
METRIC NAME: gephE Binding Intensity [norm.] (norm.)

- ADGKGGNAAKKNTVNGTGTP [Glycine receptor subunit beta_009]: 0.015

P = NNGLGKPQAKNKKPPPAKPV [Glycine receptor subunit beta_033, GlyR β residues 445-464]
Q = KGGNAAKKNTVNGTGTPVHI [Glycine receptor subunit beta_010]
R = KNKKPPPAKPVIPTAAKRID [Glycine receptor subunit beta_036, GlyR β residues 454-473]
Task item: Please list the entries, largest gephE Binding Intensity [norm.] first. List the labels according to the requested ordering.
Reply: P, Q, R

A = PQAKNKKPPPAKPVIPTAAK [Glycine receptor subunit beta_035, GlyR β residues 451-470]
B = SIVGSLPRDFELSNYDCYGK [Glycine receptor subunit beta_025, GlyR β residues 421-440]
C = IAKAEQADGKGGNAAKKNTV [Glycine receptor subunit beta_007]
Task item: Please list the entries, largest gephE Binding Intensity [norm.] first. List the labels according to the requested ordering.
Reply: B, C, A
(B: 0.291 norm., C: 0.025 norm., A: 0.012 norm.)

1 = LGKPQAKNKKPPPAKPVIPT [Glycine receptor subunit beta_034, GlyR β residues 448-467]
2 = PRDFELSNYDCYGKPIEVNN [Glycine receptor subunit beta_027, GlyR β residues 427-446]
Task item: Would you let me know which has the greater gephE Binding Intensity [norm.] value, 1 or 2 ? Answer format: the label of the selected item.
Reply: 2

1 = NDFSIVGSLPRDFELSNYDC [Glycine receptor subunit beta_024, GlyR β residues 418-437]
2 = KARIAKAEQADGKGGNAAKK [Glycine receptor subunit beta_006, GlyR β residues 364-383]
Task item: Would you let me know which has the greater gephE Binding Intensity [norm.] value, 1 or 2 ? Answer format: the label of the selected item.
Reply: 1
(1: 0.599 norm., 2: 0.040 norm.)

----------
Test system: native geph
Assay: µSPOT peptide microarray binding assay with native geph from mouse brain lysate
Details: overlapping GlyR β peptide library on µSPOT array; 3% mouse brain lysate; normalized to most prominent spot; n = 2 array-internal duplicate
METRIC NAME: Native geph Binding Intensity [norm.] (norm.)

1 = KPPPAKPVIPTAAKRIDL [Glycine receptor subunit beta_037, GlyR β residues 457-474]
2 = NDFSIVGSLPRDFELSNYDC [Glycine receptor subunit beta_024, GlyR β residues 418-437]
3 = CTSKSDLRSNDFSIVGSLPR [Glycine receptor subunit beta_021, GlyR β residues 409-428]
Task item: Arrange the 3 sequences by rising Native geph Binding Intensity [norm.], starting with the smallest. List the labels according to the requested ordering.
Reply: 1, 3, 2

----------
System: gephE
Experiment: µSPOT peptide microarray binding assay with recombinant gephE
Conditions: µSPOT full positional scan of GlyRβ 15-mer DLRSNDFSIVGSLPR; intensity normalised to wild-type sequence (= 1)
METRIC NAME: gephE Binding Intensity [norm.] (norm.)

Here is how some sequences turned out for gephE Binding Intensity [norm.].
- DLRSNDFSIVGSLPN [GlyRβ_Full_Positional_Scan_299]: 0.98
- DLRSNDFSIVGCLPR [GlyRβ_Full_Positional_Scan_237]: 0.63
- DLRSNDFSIVGSLPM [GlyRβ_Full_Positional_Scan_298]: 0.9
- DLRSNDFSIVGVLPR [GlyRβ_Full_Positional_Scan_226]: 0.69
- DLRSNDFSIVGSTPR [GlyRβ_Full_Positional_Scan_256]: 0.86
- DLRSNDFSIVGSKPR [GlyRβ_Full_Positional_Scan_254]: 0.59
- DLRSNDFSIVGTLPR [GlyRβ_Full_Positional_Scan_236]: 0.94
- DLRSNDFSIVGSLAR [GlyRβ_Full_Positional_Scan_261]: 0.67
- DLRSNDFSIVGSLPG [GlyRβ_Full_Positional_Scan_282]: 0.88
- DLRSNDFSIVGSRPR [GlyRβ_Full_Positional_Scan_252]: 0.84

a = DLRSNDFSIVGSQPR [GlyRβ_Full_Positional_Scan_260]
b = DLRSNDFSIVCSLPR [GlyRβ_Full_Positional_Scan_217, GlyR β 414-428 variant G424C]
Task item: Could you determine which record has the numerically smaller gephE Binding Intensity [norm.]? Candidates: a and b Answer format: the label of the selected item.
Reply: b
(b: 0.43 norm., a: 0.76 norm.)

----------
Tested on: native geph
Assay: µSPOT peptide microarray binding assay with native geph from mouse brain lysate
Settings: µSPOT peptide microarray, GlyRβ full positional scan, native geph from mouse brain lysate; intensity normalised to wild-type sequence DLRSNDFSIVGSLPR (=1)
METRIC NAME: Native geph Binding Intensity [norm.] (norm.)

Here is how some sequences turned out for Native geph Binding Intensity [norm.].
• DLRSNDFHIVGSLPR [GlyRβ_Full_Positional_Scan_153, GlyR β 414-428 variant S421H] = 0.48
• DLPSNDFSIVGSLPR [GlyRβ_Full_Positional_Scan_045] = 1.5

P = DFRSNDFSIVGSLPR [GlyRβ_Full_Positional_Scan_027]
Q = DLRSNDFSKVGSLPR [GlyRβ_Full_Positional_Scan_174, GlyR β 414-428 variant I422K]
Task item: Could you determine which record has the numerically smaller Native geph Binding Intensity [norm.]? Candidates: P and Q Answer format: the label of the selected item.
Reply: Q

P = DLRSNDFIIVGSLPR [GlyRβ_Full_Positional_Scan_143, GlyR β 414-428 variant S421I]
Q = DLRSHDFSIVGSLPR [GlyRβ_Full_Positional_Scan_093]
Task item: Would you let me know which has the greater Native geph Binding Intensity [norm.] value, P or Q ? Answer format: the label of the selected item.
Reply: Q
(Q: 0.72 norm., P: 0.18 norm.)

a = DLISNDFSIVGSLPR [GlyRβ_Full_Positional_Scan_043]
b = DIRSNDFSIVGSLPR [GlyRβ_Full_Positional_Scan_023]
Task item: Could you determine which record has the numerically smaller Native geph Binding Intensity [norm.]? Candidates: a and b Answer format: the label of the selected item.
Reply: b
(b: 1.16 norm., a: 1.69 norm.)

P = DLYSNDFSIVGSLPR [GlyRβ_Full_Positional_Scan_049]
Q = DLRSNDFSITGSLPR [GlyRβ_Full_Positional_Scan_196, GlyR β 414-428 variant V423T]
Task item: Could you determine which record has the numerically smaller Native geph Binding Intensity [norm.]? Candidates: P and Q Answer format: the label of the selected item.
Reply: Q
(Q: 0.59 norm., P: 1.37 norm.)

----------
Test system: FL-geph
Test: µSPOT peptide microarray binding assay with full-length geph
Conditions: µSPOT peptide microarray, GlyRβ full positional scan, intensity normalised to wild-type sequence DLRSNDFSIVGSLPR (=1)
METRIC NAME: Fl-geph Binding Intensity [norm.] (norm.)

- DLRSNDGSIVGSLPR [GlyRβ_Full_Positional_Scan_122, GlyR β 414-428 variant F420G]: 0.55
- DLRSNDFFIVGSLPR [GlyRβ_Full_Positional_Scan_147, GlyR β 414-428 variant S421F]: 0.64
- DLRSCDFSIVGSLPR [GlyRβ_Full_Positional_Scan_097]: 0.76
- DWRSNDFSIVGSLPR [GlyRβ_Full_Positional_Scan_028]: 0.82
- DLRSNDRSIVGSLPR [GlyRβ_Full_Positional_Scan_132, GlyR β 414-428 variant F420R]: 0.77

1 = DLRSHDFSIVGSLPR [GlyRβ_Full_Positional_Scan_093]
2 = DLNSNDFSIVGSLPR [GlyRβ_Full_Positional_Scan_059]
Task item: Would you let me know which has the greater Fl-geph Binding Intensity [norm.] value, 1 or 2 ? Answer format: the label of the selected item.
Reply: 2
